# TEST_SYSTEM: recombinant soluble homotrimeric HA of A/Wisconsin/67/05 (H3N2) (Influenza A virus A/Wisconsin/67/2005(H3N2))
# ASSAY_EXPLANATION: trimeric HA microarray, transfection supernatant set 2
# CONDITION: remark: other sources report otherwise
Assign class by Trimeric HA Binding: RLU: not lower than 40000 RLU means T; lower than 40000 RLU means F.

IN: Tell me whether Trimeric HA Binding: RLU is at least 40000 RLU here: TCN-528 (5087_P17) (antibody, V domains shown) VH: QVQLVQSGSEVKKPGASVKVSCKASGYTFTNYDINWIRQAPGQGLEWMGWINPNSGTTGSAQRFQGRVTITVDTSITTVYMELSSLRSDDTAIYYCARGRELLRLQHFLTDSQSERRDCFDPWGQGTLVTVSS VL: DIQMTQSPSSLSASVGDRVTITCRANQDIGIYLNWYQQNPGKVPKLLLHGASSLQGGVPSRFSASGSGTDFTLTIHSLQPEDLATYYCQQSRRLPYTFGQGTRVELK
OUT: T

IN: Quick one: TCN-563 (5237_B21) (antibody, V domains shown) VH: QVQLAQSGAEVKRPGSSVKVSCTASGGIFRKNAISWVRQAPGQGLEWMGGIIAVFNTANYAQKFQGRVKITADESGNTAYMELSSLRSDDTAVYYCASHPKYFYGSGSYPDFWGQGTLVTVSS VL: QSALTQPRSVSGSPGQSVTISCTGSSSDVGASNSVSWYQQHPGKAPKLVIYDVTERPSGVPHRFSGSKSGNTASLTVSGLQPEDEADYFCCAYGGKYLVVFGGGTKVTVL
OUT: F

IN: Another: TCN-526 (5084_C17) (antibody, V domains shown) VH: EVLMVESGGGLVQPGGSVRLSCVASGFSFSSHWMTWVRQAPGKGLEWVANIEDDGGDKYYVDSVKGRFIISRDNAKNSVYLQMNSLRAEDTAVYFCARGSGSSDRSDYDPHYYYYLDVWGKGATVTVSS VL: DIQLTQSPSSLSASVGDRVTITCRASQSISRYLNWYQQKPGKAPKLLLFAASTLLDGVPSRFSGSGSGTDFTLTISSLQPEDFATYYCQRNHSPSWTFGQGTRVEIK
OUT: F

IN: Now the binder TCN-504 (3251_K17) (antibody, V domains shown) VH: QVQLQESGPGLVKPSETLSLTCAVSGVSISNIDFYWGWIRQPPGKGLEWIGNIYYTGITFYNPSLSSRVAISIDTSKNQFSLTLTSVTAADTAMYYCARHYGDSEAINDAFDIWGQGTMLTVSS VL: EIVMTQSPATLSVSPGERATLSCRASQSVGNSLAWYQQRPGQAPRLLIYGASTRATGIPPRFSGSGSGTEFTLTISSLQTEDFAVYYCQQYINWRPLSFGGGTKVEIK
OUT: F

IN: Next binder up: TCN-527 (5086_C06) (antibody, V domains shown) VH: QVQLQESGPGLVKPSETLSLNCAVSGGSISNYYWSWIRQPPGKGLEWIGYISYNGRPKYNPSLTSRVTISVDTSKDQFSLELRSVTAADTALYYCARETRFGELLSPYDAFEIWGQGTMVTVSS VL: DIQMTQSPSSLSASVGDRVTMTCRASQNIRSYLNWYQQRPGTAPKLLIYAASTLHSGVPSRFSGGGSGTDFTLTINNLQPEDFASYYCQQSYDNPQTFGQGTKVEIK
OUT: F
